The values you see were collected from paper PMC12064818.

target: FLuc-C-HiBiT (Photinus pyralis); construct: firefly luciferase with C-terminal HiBiT tag, E. coli expressed; assay: biochemical; conditions: enzyme activity, 10 uM ATP; read-out: IC50 or SDR50 (mM) / FLuc E
Sequence (P08659 whole entry, looked up): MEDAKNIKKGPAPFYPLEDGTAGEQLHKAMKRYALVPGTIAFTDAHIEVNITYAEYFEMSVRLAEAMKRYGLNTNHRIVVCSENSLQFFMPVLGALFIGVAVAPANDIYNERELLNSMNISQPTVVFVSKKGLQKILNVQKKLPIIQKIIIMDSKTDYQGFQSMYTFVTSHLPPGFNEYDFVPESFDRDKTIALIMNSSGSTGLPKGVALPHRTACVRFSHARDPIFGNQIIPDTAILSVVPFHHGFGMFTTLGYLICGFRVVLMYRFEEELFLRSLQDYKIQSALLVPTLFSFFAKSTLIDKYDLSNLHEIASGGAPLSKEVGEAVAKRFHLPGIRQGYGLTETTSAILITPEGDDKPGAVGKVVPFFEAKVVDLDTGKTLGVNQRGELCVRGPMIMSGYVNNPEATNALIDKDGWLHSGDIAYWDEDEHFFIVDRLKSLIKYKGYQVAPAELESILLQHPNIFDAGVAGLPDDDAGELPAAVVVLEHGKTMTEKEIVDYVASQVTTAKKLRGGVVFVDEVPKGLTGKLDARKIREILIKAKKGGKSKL
In this section, each of the molecules is paired with its reported IC50.
Number only, in mM; omit the unit.

Known IC50 results, listed for orientation:
O=C(Nc1cccc(-c2ccc(N3CCCC3)nn2)c1)c1c(F)cccc1F    0.00881
Cc1ccc2nc(-c3ccc(NC(=O)c4ccccc4S(C)(=O)=O)cc3)sc2c1    0.0111
O=C(Nc1ccc(F)cc1)Nc1cccc(-c2ccc(N3CCOCC3)nn2)c1    0.00197
Cc1cccc(C(=O)Nc2nc3c(s2)CCCC3)c1    0.00248
COc1ccc(-c2noc(N3CCc4ccccc43)n2)cc1    0.00313
CCc1ccc(C2=CC(c3cccc(C)c3)n3c(nc4ccccc43)N2)cc1 (stereo not drawn)    0.000881
Cc1cccc(-n2ncc3c(N4CCCCCC4)ncnc32)c1    0.000881
O=C(Nc1ccccc1)c1nc2c(o1)CCN(Cc1cccc(Cl)c1)CC2    0.0101

Now consider the entry below.
Kindly note the recorded IC50 for C[S+](=O)([O-])CCn1ncc2cc(OCc3cccc(-c4ccc(F)cc4)c3)ccc21 , which is 0.0161
